assay: self-splicing fitness, log relative to wild type (ln ratio); higher = more splicing; Tetrahymena group I intron in knt gene, E. coli kanamycin selection, DiMSum; sequences stand for … in CUCUCU…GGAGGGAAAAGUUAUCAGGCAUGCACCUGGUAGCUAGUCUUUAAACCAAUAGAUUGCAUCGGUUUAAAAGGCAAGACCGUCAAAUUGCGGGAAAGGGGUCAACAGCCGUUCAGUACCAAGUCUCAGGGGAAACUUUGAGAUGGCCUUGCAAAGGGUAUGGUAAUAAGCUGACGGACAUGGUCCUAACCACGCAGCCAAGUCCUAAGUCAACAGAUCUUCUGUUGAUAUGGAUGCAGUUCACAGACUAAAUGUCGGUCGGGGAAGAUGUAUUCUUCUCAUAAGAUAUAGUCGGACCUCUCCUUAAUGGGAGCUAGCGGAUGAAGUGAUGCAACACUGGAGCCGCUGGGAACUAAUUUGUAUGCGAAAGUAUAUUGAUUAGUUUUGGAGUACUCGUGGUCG; settings: 30 °C;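 also: selection with 25 µg/mL kanamycin versus none on LB agar overnight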
Please enter yes where self-splicing fitness (ln) is greater than or equal to -2, and no where it is lower.

>>> df
           sequence_text  group_label
 0  AUUUAGCAAUAUUACGCGCC          yes
 1  UCAAAGCAAUAUUACGAUGG          yes
 2  GCUUAGCAAUAUUACGAUCG          yes
 3  UUAGAGCAAUAUUACGCAUG          yes
 4  AGUCAGCAAUAUUACGUCUC           no
 5  GGUAAGCAAUAUUACGCCGC           no
 6  GCCCAGCAAUAUUACGGAGC           no
 7  GCGCAGCAAUAUUACGAGGU           no
 8  CCGCAGCAAUAUUACGACAC           no
 9  GAAUAGCAAUAUUACGCGGA          yes
10  GCCGAGCAAUAUUACGUCUC           no
11  UAGAAGCAAUAUUACGUGGC           no
12  CAGCAGCAAUAUUACGAUCA           no
13  AGAUAGCAAUAUUACGUCUA          yes
14  CGAUAGCAAUAUUACGGCGG          yes
15  UUCGAGCAAUAUUACGCCCA           no
16  ACAGAGCAAUAUUACGCUCU           no
17  AAUCAGCAAUAUUACGAUUC           no
18  GAUCAGCAAUAUUACGGACA          yes
19  CUCGAGCAAUAUUACGUGGG           no
20  CUGGAGCAAUAUUACGGUAA           no
21  UACCAGCAAUAUUACGCUCA          yes
22  GCCUAGCAAUAUUACGGCUG          yes
23  UAUCAGCAAUAUUACGCAGG          yes
24  GUCCAGCAAUAUUACGGGGU           no
25  CCCCAGCAAUAUUACGAUGG           no
26  CCGAAGCAAUAUUACGUGGA           no
27  CAUUAGCAAUAUUACGGGAG          yes
28  GGCCAGCAAUAUUACGAACG           no
29  UACAAGCAAUAUUACGAACG          yes
30  GGCUAGCAAUAUUACGUUGU          yes
31  UGUAAGCAAUAUUACGAACG          yes
32  AACCAGCAAUAUUACGCUGA           no
33  UGAGAGCAAUAUUACGUGAU           no

---

assay: self-splicing fitness, log relative to wild type (ln ratio); higher = more splicing; Tetrahymena group I intron in knt gene, E. coli kanamycin selection, DiMSum; sequences stand for … in CUCUCU…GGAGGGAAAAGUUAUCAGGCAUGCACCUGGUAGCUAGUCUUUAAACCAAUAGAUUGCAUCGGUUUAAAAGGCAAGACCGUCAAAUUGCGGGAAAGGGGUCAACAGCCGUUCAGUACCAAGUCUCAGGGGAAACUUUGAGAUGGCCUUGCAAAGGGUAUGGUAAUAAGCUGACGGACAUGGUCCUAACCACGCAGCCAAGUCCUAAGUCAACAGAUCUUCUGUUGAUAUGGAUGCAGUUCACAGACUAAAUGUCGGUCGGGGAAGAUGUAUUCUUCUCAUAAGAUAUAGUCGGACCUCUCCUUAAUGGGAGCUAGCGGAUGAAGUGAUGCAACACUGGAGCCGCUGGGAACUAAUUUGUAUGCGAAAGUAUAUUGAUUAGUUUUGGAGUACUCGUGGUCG; details: 37 °C
READOUT_LABEL: self-splicing fitness (ln)

>>> print(df.to_string())
          sequence_text  observed_result
0  CCGGAGCAAUAUUACGUCCA            -1.66
1  AAAGAGCAAUAUUACGUACA            -1.71
2  UACUAGCAAUAUUACGUACU           -0.347
3  CCCUAGCAAUAUUACGUAAU            -2.83
4  GCAGAGCAAUAUUACGUGGU            -2.27
5  AGCUAGCAAUAUUACGCGUU            -2.11
6  UCACAGCAAUAUUACGAAGU            -3.34
7  CGUCAGCAAUAUUACGUUUC            -3.06

---

The following sequences are shown together with reported self-splicing fitness (ln) values.
experiment: self-splicing fitness, log relative to wild type (ln ratio); higher = more splicing; Tetrahymena group I intron in knt gene, E. coli kanamycin selection, DiMSum; sequences stand for … in CUCUCU…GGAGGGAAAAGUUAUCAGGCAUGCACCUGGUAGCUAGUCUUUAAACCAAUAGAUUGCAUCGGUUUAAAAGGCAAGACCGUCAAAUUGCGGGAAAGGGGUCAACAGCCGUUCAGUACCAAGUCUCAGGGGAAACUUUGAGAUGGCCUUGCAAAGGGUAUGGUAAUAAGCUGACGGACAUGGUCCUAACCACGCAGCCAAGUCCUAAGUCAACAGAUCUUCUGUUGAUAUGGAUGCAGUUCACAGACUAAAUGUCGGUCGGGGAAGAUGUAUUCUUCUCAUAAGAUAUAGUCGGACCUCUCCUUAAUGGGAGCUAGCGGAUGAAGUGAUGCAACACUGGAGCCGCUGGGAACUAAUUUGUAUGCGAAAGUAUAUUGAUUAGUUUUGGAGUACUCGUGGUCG; conditions: 30 °C
READOUT_LABEL: self-splicing fitness (ln)

>>> print(df.to_string())
           sequence_text  observed_result
 0  CUUUAGCAAUAUUACGAUAU            -3.93
 1  UGUAAGCAAUAUUACGAACC           -0.477
 2  UCACAGCAAUAUUACGUGGG            -3.34
 3  UGCCAGCAAUAUUACGUUCU            -2.37
 4  CCUCAGCAAUAUUACGAGUU            -2.31
 5  GGAGAGCAAUAUUACGUCAA            -2.93
 6  UCCAAGCAAUAUUACGCGGU            -2.56
 7  GGACAGCAAUAUUACGGUCU            -3.84
 8  UACGAGCAAUAUUACGAAAG            -2.75
 9  CGCGAGCAAUAUUACGACAA            -2.72
10  CAGUAGCAAUAUUACGCCGA            -3.13
11  UACCAGCAAUAUUACGAUUC            -2.36
12  ACCCAGCAAUAUUACGUUAG            -3.31
13  GACUAGCAAUAUUACGUUCA           -0.661
14  CUACAGCAAUAUUACGCAAG            -2.61
15  AAGCAGCAAUAUUACGAUUC            -1.73
16  UAUAAGCAAUAUUACGUCAU            -3.37
17  CGCGAGCAAUAUUACGACUA            -2.42
18  ACUUAGCAAUAUUACGUACA            -1.84
19  CAGCAGCAAUAUUACGUGUA            -2.97
20  CGGUAGCAAUAUUACGUACC            -3.27
21  CUAGAGCAAUAUUACGUUUA             -4.4
22  ACCUAGCAAUAUUACGCACC            -1.24
23  ACCCAGCAAUAUUACGCGUC            -2.16
24  CGACAGCAAUAUUACGCAUC             -3.1
25  AUUAAGCAAUAUUACGUGGA            -3.32
26  CAGUAGCAAUAUUACGAGAC            -3.08
27  CGCCAGCAAUAUUACGGCUA           -0.576
28  AUGAAGCAAUAUUACGGAGU             -1.4
29  UACAAGCAAUAUUACGCUAU            -3.38
30  UGCGAGCAAUAUUACGCAUA            -3.48
31  UAGGAGCAAUAUUACGGCUC            -2.64
32  UGCAAGCAAUAUUACGCCCC           -0.548
33  GUAAAGCAAUAUUACGGGGC            -3.07
34  GAUGAGCAAUAUUACGUCAG            -3.78
35  CUUGAGCAAUAUUACGCCAU            -2.92
36  UAGUAGCAAUAUUACGGGAC             -4.2
37  GCUUAGCAAUAUUACGACAU            -1.26
38  UACGAGCAAUAUUACGGGAU            -2.49
39  GAAGAGCAAUAUUACGAUUG            -2.53
40  UCACAGCAAUAUUACGAAAA               -3
41  AUGUAGCAAUAUUACGUUUC            -2.86
42  UCCAAGCAAUAUUACGACUU            -3.57
43  GAUAAGCAAUAUUACGCGCU            -1.44
44  GAUCAGCAAUAUUACGUCGU           -0.403
45  ACGGAGCAAUAUUACGGCUA            -1.96
46  UGCCAGCAAUAUUACGACAC            -2.55
47  UCCAAGCAAUAUUACGCGGG            -3.94
48  AUGGAGCAAUAUUACGCAAG            -4.55
49  ACGUAGCAAUAUUACGACAC            -1.46
50  AGUCAGCAAUAUUACGCUGU            -4.12
51  AUGCAGCAAUAUUACGUUAG            -3.05
52  UGUAAGCAAUAUUACGUCAG            -1.14
53  CCAGAGCAAUAUUACGUUGU            -3.81
54  CGUUAGCAAUAUUACGAACG            -2.85
55  UCCUAGCAAUAUUACGAAUA            -2.81
56  UAUUAGCAAUAUUACGAGCG           -0.705
57  UACGAGCAAUAUUACGUAUC            -2.79
58  AAGUAGCAAUAUUACGGGUU            -1.46
59  AAACAGCAAUAUUACGAUCA           -0.774
60  CUGCAGCAAUAUUACGGGAA            -4.02
61  GGGAAGCAAUAUUACGUCAU            -1.42
62  CAACAGCAAUAUUACGUCGG           -0.576
63  CCAAAGCAAUAUUACGGCCC            -3.57
64  GUCAAGCAAUAUUACGUGUU            -2.85
65  CACUAGCAAUAUUACGAGAA            -2.74
66  GUGAAGCAAUAUUACGUGAU            -1.97
